Overview of reported Susceptibility, Fold Change in EC50 relative to reference strain across a group of compounds:
# Tested on: clinical isolates containing an I50L substitution (and their baseline isolates)
# Assay Explanation: PhenoSense phenotypic susceptibility of clinical isolates from ATV-treated patients who developed I50L
# Type: cell-based, HIV-1
# Assay Setup: Subject 076, Week 92
Write down the numeric answer in Fold Change and omit the unit.

As a guide, the following entries are already answered.
- Smiles Representation: "Cc1cccc(C)c1OCC(=O)N[C@@H](Cc1ccccc1)[C@@H](O)C[C@H](Cc1ccccc1)NC(=O)[C@H](C(C)C)N1CCCNC1=O"
  Reported Result: 0.5
- Smiles Representation: "CC(C)c1nc(CN(C)C(=O)N[C@H](C(=O)N[C@@H](Cc2ccccc2)C[C@H](O)[C@H](Cc2ccccc2)NC(=O)OCc2cncs2)C(C)C)cs1"
  Reported Result: 0.3
- Smiles Representation: "CC(C)CN(C[C@@H](O)[C@H](Cc1ccccc1)NC(=O)O[C@H]1CCOC1)S(=O)(=O)c1ccc(N)cc1"
  Reported Result: 0.9

Report Susceptibility, Fold Change in EC50 relative to reference strain for `COC(=O)N[C@H](C(=O)N[C@@H](Cc1ccccc1)[C@@H](O)CN(Cc1ccc(-c2ccccn2)cc1)NC(=O)[C@@H](NC(=O)OC)C(C)(C)C)C(C)(C)C` please.
16

What would you report for `CC(C)(C)NC(=O)[C@@H]1CN(Cc2cccnc2)CCN1C[C@@H](O)C[C@@H](Cc1ccccc1)C(=O)N[C@H]1c2ccccc2C[C@H]1O` ?
0.5

What do we get for `Cc1c(O)cccc1C(=O)N[C@@H](CSc1ccccc1)[C@H](O)CN1C[C@H]2CCCC[C@H]2C[C@H]1C(=O)NC(C)(C)C` ?
0.6

Then this compound: `CC(C)(C)NC(=O)[C@@H]1C[C@@H]2CCCC[C@@H]2CN1C[C@@H](O)[C@H](Cc1ccccc1)NC(=O)[C@H](CC(N)=O)NC(=O)c1ccc2ccccc2n1`
0.5

* * *

Property: Susceptibility, Fold Change in EC50 relative to reference strain; scope: individual compounds
# Test system: clinical isolates containing an I50L substitution (and their baseline isolates)
# Assay Explanation: PhenoSense phenotypic susceptibility of clinical isolates from ATV-treated patients who developed I50L
# Type: cell-based, HIV-1
# Assay Setup: Subject 076, Week 80
Quick note: give the figure in Fold Change, leave out the unit.

These recorded examples may help you get a feel for the data.
- Smiles Representation: "CC(C)(C)NC(=O)[C@@H]1C[C@@H]2CCCC[C@@H]2CN1C[C@@H](O)[C@H](Cc1ccccc1)NC(=O)[C@H](CC(N)=O)NC(=O)c1ccc2ccccc2n1"
  Unit Tag: "Fold Change"
  Reported Result: 0.3
- Smiles Representation: "COC(=O)N[C@H](C(=O)N[C@@H](Cc1ccccc1)[C@@H](O)CN(Cc1ccc(-c2ccccn2)cc1)NC(=O)[C@@H](NC(=O)OC)C(C)(C)C)C(C)(C)C"
  Unit Tag: "Fold Change"
  Reported Result: 9.5
- Smiles Representation: "CC(C)c1nc(CN(C)C(=O)N[C@H](C(=O)N[C@@H](Cc2ccccc2)C[C@H](O)[C@H](Cc2ccccc2)NC(=O)OCc2cncs2)C(C)C)cs1"
  Unit Tag: "Fold Change"
  Reported Result: 0.3
- Smiles Representation: "CC(C)(C)NC(=O)[C@@H]1CN(Cc2cccnc2)CCN1C[C@@H](O)C[C@@H](Cc1ccccc1)C(=O)N[C@H]1c2ccccc2C[C@H]1O"
  Unit Tag: "Fold Change"
  Reported Result: 0.4
- Smiles Representation: "Cc1cccc(C)c1OCC(=O)N[C@@H](Cc1ccccc1)[C@@H](O)C[C@H](Cc1ccccc1)NC(=O)[C@H](C(C)C)N1CCCNC1=O"
  Unit Tag: "Fold Change"
  Reported Result: 0.6

# query: Susceptibility, Fold Change in EC50 relative to reference strain of entry `Cc1c(O)cccc1C(=O)N[C@@H](CSc1ccccc1)[C@H](O)CN1C[C@H]2CCCC[C@H]2C[C@H]1C(=O)NC(C)(C)C`
0.4

Please give the result for `CC(C)CN(C[C@@H](O)[C@H](Cc1ccccc1)NC(=O)O[C@H]1CCOC1)S(=O)(=O)c1ccc(N)cc1` too.
0.6

* * *

# Tested on: recombinant HIV-1 viruses (NL4-3, RF, LAI) in MT-2 cells
# Assay Explanation: MT-2 cell susceptibility assay of recombinant viruses
# Type: cell-based
# Assay Setup: Human immunodeficiency virus 1, NL43, MT2, RF Control; read-out: ATV phenotype (value before parenthesis, EC50)
Measurement Kind: EC50 (nM)
Number in nM, nothing else.

Please look up its EC50: `COC(=O)N[C@H](C(=O)N[C@@H](Cc1ccccc1)[C@@H](O)CN(Cc1ccc(-c2ccccn2)cc1)NC(=O)[C@@H](NC(=O)OC)C(C)(C)C)C(C)(C)C`
0.7

* * *

# System: clinical isolates containing an I50L substitution (and their baseline isolates)
# Assay Explanation: PhenoSense phenotypic susceptibility of clinical isolates from ATV-treated patients who developed I50L
# Assay type: cell-based, HIV-1
# Assay Setup: on emergence of I50L, n=4 to 15
Label yes (1) for high-side median increase in susceptibility from baseline (at or above 2 fold) and no (0) for low-side median increase in susceptibility from baseline (below it).

Study these solved cases before continuing.
- Compound: "Cc1cccc(C)c1OCC(=O)N[C@@H](Cc1ccccc1)[C@@H](O)C[C@H](Cc1ccccc1)NC(=O)[C@H](C(C)C)N1CCCNC1=O [LPV, lopinavir]"
  Assigned Category: "yes (1)"
- Compound: "CC(C)c1nc(CN(C)C(=O)N[C@H](C(=O)N[C@@H](Cc2ccccc2)C[C@H](O)[C@H](Cc2ccccc2)NC(=O)OCc2cncs2)C(C)C)cs1 [RTV, ritonavir]"
  Assigned Category: "yes (1)"
- Compound: "CC(C)CN(C[C@@H](O)[C@H](Cc1ccccc1)NC(=O)O[C@H]1CCOC1)S(=O)(=O)c1ccc(N)cc1 [APV, amprenavir]"
  Assigned Category: "no (0)"

Confirm if median increase in susceptibility from baseline reported for the compound Cc1c(O)cccc1C(=O)N[C@@H](CSc1ccccc1)[C@H](O)CN1C[C@H]2CCCC[C@H]2C[C@H]1C(=O)NC(C)(C)C [NFV, nelfinavir] is 2 fold or above.
no (0)
